Tested target: Grb2 SH2 (UniProt P62993)
Sequence (P62993 whole entry, looked up, the tested form may be a part): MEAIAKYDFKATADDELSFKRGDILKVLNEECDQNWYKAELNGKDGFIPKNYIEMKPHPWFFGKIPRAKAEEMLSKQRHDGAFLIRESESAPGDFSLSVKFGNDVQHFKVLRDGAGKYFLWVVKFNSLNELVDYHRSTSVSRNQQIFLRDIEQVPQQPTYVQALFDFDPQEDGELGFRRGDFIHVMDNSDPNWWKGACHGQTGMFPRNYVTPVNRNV
Method: SH2 binding enrichment of the phosphorylated peptide, bacterial display (enrichment ratio); higher = better substrate or ligand; peptides without Tyr show the background;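 also: peptide library displayed on the E. coli surface as eCPX fusions, selected cells deep-sequenced, score is each peptide's frequency after selection divided by its frequency in the input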
Kindly state SH2 binding enrichment for each of the entries shown.
Number only, no unit.

Query: SH2 binding enrichment; subject: KTVQDYLKKFY [MMP8_Y36_E38K] 1

Please report the recorded SH2 binding enrichment for QMVGMYAFSYM [AVPR2_Y124_S126F] . 0.638

Field request: SH2 binding enrichment | item: IGRHAYGDQYR [IDH1_Y135] 1.03

Suppose we examine the sequence KVPCHYDDPGK [FOXG1_Y246_R244C] ; what SH2 binding enrichment value has been reported? 0.906

Query: SH2 binding enrichment; subject: FEPWVYSFSFE [PRKDC_Y647_YF] 0.736

State the recorded SH2 binding enrichment for this entry: GPTLSYGRDGR [MATR3_Y158] 0.692

// query SH2 binding enrichment value for entry GLAKEYIDPET [CSNK1G2_Y195] 0.942

Given NTQRPYYKGGG [TYROBP_Y111] , state its recorded SH2 binding enrichment. 1.21

// lookup SH2 binding enrichment for LTGIAYSLPHW [SLC22A14_Y291] 0.847

Param item = QLRPGYIPIPV [BAG3_Y93] ; retrieve measured SH2 binding enrichment. 0.848

Form field: reported SH2 binding enrichment of HAVVDYMRRQK [ATM_Y1915_L1910H] 0.6

Suppose we examine the sequence WQQQSYLDSGI [CTNNB1_Y30] ; what SH2 binding enrichment value has been reported? 0.726

Returns the measured SH2 binding enrichment for the input sequence. Input: QAFSWYQHQRA [NDST1_Y714_R709Q_YF] 0.778

Query: SH2 binding enrichment; subject: MKGEYYRYLAE [YWHAG_Y131_D129E] 0.922

Which SH2 binding enrichment is listed for PSNTDYPGPHS [TP63_Y171] ? 0.792

Param item = KHMADYPDCKY [SOX11_Y113_Y116C] ; retrieve measured SH2 binding enrichment. 0.863

So what does the record say about SH2 binding enrichment for SELVCYDARVH [MET_Y971_R970C] ? 0.874

For VEDDMYRKTCT [XPA_Y257_L252V] , what is its reported SH2 binding enrichment? 0.894

// returns reported SH2 binding enrichment for input TGFRPYVCPFD [YY1_Y383_D380Y_YF] 0.677

Consider the sequence shown here: VCDSNYSASRW [LRP5_Y1552_D1551N] What is its recorded SH2 binding enrichment? 0.872

Looking for the measured SH2 binding enrichment of YTFNSYYMHWV [IGHV1-46_Y51_T49N] , can you help? 1.12

Could you tell me which SH2 binding enrichment is on file for KAIMIYVSSFY [ACTN4_Y260_T259I] ? 0.816

If you can, please state the reported SH2 binding enrichment value of SFTDPYAQPPL [KMT2D_Y2378_YF] . 0.651

Look up SH2 binding enrichment: IEDPFYGNDSD [ACP1_Y133_YF] 0.942

Param item = EPGNLYIAKVE [CNTN4_Y180_T176P] ; retrieve measured SH2 binding enrichment. 0.788

What does the data say about its SH2 binding enrichment? Entry: DALDNYVIRGV [PCCA_Y473] 0.649

What does the data say about its SH2 binding enrichment? Entry: SVVVPYEPPEI [TP53_Y220_V225I] 0.854

What value of SH2 binding enrichment has been reported for the following sequence? NVTGHYISPFH [PPA2_Y59] 0.852

Fill blank: measured SH2 binding enrichment of the sequence GGTPLYRDRQG [AGXT_Y194_M195R] is ____. 0.87

# lookup: SH2 binding enrichment of LISVSYDDWDF [GRIN2A_Y281_YF] 1.12

Look at this sequence and give its reported SH2 binding enrichment. NFYEYYVDDPL [GCHFR_Y48_P53L] 0.984

# SH2 binding enrichment lookup, item VDTPMYATMQR [TPO_Y55_A53P] 0.803

Fill in: SH2 binding enrichment of KGIQLYDTPFE [SHB_Y297_YF] is ___ 1.3
